- System: K4 kissing-loop RNA reporter;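 further: bound reporter read as fluorescence of individual clusters on recovered sequencing chips by microscopy, with normalized cluster intensities fitted with a binding model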
- method notes: apparent KD of K4 kissing-loop reporter; higher = weaker reporter binding
- setup conditions: Eterna round: R107; input ligand: theophylline 20 uM
Exercise: for every item that follows, state its recorded apparent KD of K4 kissing-loop reporter.
Kindly answer with a numeric value in µM, unit omitted.

IN: Provide the documented apparent KD of K4 kissing-loop reporter with K4 kissing-loop RNA reporter as the system for UGAGAUAUGAGGGAUACCAGCCAUAAGGAAAGUGUGAUGAGUGAUGUUCUGACAAGCCAAGGCCCUUGGCAGCUUUAAUAGCAUC [whbob_SS_Theo_B_th77]
OUT: 0.167

IN: What do you get for GCCUAGCAGGGAAGGAGCGCCAGGAGAAGAAAUGGAGAGAGUUGAGUGAUGUUCAAAUGGUGGCAGGUAGGUCGCCCUGCUAGGC [KL-SSArg B12] ?
OUT: 0.761

IN: What do you get for CAUAUAUACACUAACCCGUACGGUAGUAAGCGAGGACCGGUACGGCCGCCACUCGAUCGUUUCGUGUUAGCACCAGUGAUGUUGG [theeternabot_sameState_KL_Trp_A_3] ?
OUT: 0.431
